Quick list: pIC50 per entry.
target: Metabotropic glutamate receptor 5 (Homo sapiens, UniProt P41594); assay: Calcium Mobilization Assay: The rmGluR5 or hmGluR5 was stably expressed in a HEK 293 cell line and gown in Dulbecco's Modified Eagle Medium (DMEM) (Invitrogen, Carlsbad, Calif.) with supplements (10% bovine calf serum, 4 mM glutamine, 100 units/mL penicillin, 100 μg/mL streptomycin and 0.75 mM G1418) at 37° C., 5% CO2. Twenty-four hours prior to assay, cells were seeded into 384-well black wall microtiter plates coated with poly-D-lysine. Just prior to assay, media was aspirated and cells dye-loaded (25 μL/well) with 3 μM Fluo-4/0.01% pluronic acid in assay buffer (Hank's Balanced Saline Solution (HBSS)): 150 mM NaCl, 5 mM KCl, 1 mM CaCl2, 1 mM MgCl2, plus 20 mM N-2-Hydroxyethylpiperazine-N′-2-ethanesulfonic acid (HEPES), pH 7.4, 0.1% bovine serum albumin (BSA) and 2.5 mM probenecid) for 1 hour in 5% CO2 at 37° C. After excess dye was discarded, cells were washed in assay buffer and layered with a final volume equal to 30 μL/well. Basal fluorescence is monitored in a fluorometri
Sequence (P41594 whole entry): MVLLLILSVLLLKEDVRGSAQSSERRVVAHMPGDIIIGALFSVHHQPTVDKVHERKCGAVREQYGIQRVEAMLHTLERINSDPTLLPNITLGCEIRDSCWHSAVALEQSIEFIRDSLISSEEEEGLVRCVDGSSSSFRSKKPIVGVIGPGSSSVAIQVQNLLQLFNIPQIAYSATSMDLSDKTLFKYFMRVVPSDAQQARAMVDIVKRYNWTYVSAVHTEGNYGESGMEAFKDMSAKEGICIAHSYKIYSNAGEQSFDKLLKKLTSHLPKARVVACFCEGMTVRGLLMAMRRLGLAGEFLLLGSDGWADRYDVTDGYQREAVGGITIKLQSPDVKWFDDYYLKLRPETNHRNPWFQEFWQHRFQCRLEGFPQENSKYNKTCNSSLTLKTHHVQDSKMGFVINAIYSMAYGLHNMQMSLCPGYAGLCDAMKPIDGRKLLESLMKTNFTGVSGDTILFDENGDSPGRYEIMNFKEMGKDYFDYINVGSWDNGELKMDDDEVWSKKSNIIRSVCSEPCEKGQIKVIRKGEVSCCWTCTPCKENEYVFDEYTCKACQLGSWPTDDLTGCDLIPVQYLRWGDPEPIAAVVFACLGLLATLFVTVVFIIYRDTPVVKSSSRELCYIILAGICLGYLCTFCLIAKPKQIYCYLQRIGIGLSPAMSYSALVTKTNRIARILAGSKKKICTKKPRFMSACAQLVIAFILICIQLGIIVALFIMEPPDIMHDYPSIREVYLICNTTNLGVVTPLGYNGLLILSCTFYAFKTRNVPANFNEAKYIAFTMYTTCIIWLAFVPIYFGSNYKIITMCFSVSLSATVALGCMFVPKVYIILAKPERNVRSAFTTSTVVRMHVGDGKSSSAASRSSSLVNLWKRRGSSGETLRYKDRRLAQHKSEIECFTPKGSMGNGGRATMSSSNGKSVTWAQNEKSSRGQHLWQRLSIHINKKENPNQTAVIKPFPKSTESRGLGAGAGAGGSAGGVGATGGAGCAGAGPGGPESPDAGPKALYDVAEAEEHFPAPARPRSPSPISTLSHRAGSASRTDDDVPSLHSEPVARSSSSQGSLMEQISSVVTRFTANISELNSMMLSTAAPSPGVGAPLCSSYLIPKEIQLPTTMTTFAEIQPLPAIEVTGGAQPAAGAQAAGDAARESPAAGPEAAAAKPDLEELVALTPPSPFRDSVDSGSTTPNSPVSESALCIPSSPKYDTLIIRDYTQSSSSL
pIC50: −log10 of the molar value.
MEASUREMENT TYPE: pIC50

COMPOUND: O=C(N[C@@]12CCC[C@@](C#Cc3ncccc3F)(CC1)C2)c1cnccn1
MEASUREMENT TYPE: pIC50
RESULT: 8.03
--
COMPOUND: O=C(NC12CC3CC(CC(C#Cc4cnccn4)(C3)C1)C2)c1cncc(F)c1
MEASUREMENT TYPE: pIC50
RESULT: 7.52
--
COMPOUND: O=C(NC12CCCC(C#Cc3cccc(F)c3)(CC1)C2)c1cnccn1 (stereo unspecified)
MEASUREMENT TYPE: pIC50
RESULT: 8.92
--
COMPOUND: Cc1cccc(C#C[C@]23CCC[C@](NC(=O)c4ccccn4)(CC2)C3)n1
MEASUREMENT TYPE: pIC50
RESULT: 8.28
--
COMPOUND: Cc1ccc(C#CC23CC4CC(C2)CC(NC(=O)c2cnccn2)(C4)C3)cn1
MEASUREMENT TYPE: pIC50
RESULT: 6.15
--
COMPOUND: Cc1cncc(C(=O)NC23CC4CC(CC(C#Cc5cccnc5)(C4)C2)C3)n1
MEASUREMENT TYPE: pIC50
RESULT: 8.42

Each recorded value in this set is attributed to ChEMBL document CHEMBL3886414.
